Tested On: T1, human OX40 on cells (CHO-hOX40, 293HEK-hOX40, Jurkat-hOX40, activated primary CD4+ T cells) (human, UniProt P43489 29-277)
T1 construct: whole, on cells; The cell type is told in each assay; also called CHO-OX40
T1 sequence (looked up): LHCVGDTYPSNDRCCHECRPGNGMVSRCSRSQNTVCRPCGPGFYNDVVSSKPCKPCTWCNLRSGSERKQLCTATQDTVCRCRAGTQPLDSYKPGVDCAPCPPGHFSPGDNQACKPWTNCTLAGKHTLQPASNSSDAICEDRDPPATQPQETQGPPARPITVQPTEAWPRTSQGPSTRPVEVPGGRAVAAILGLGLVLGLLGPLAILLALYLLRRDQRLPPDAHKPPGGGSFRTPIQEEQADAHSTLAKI
Method Summary: flow cytometry, CHO-hOX40, 100 nM
Assay Metric: CHO-OX40 binding intensity (MFI)
Give bare numbers, in MFI.

Observe how each entry below is paired with its result.
- Binder: "ADI-25650, IgG1 format (antibody, V domains shown, Made in yeast) VH: QVQLVESGGGVVQPGRSLRLSCAASGFTFSVYNMHWVRQAPGKGLEWVAVIAYDGSAKYYADSVKGRFTISRDNSKNTLYLQMNSLRAEDTAVYYCARGRPWYSETGTSAFDIWGQGTMVTVSS VL: DIQMTQSPSSLSASVGDRVTITCQASQDISNYLNWYQQKPGKAPKLLIYDASNLETGVPSRFSGSGSGTDFTFTISSLQPEDIATYYCQQSDHYPTFGGGTKVEIKR"
  Assay Metric: "CHO-OX40 binding intensity (MFI)"
  Val: 252000
- Binder: "ADI-25653, IgG1 format (antibody, V domains shown, Made in yeast) VH: QVQLVESGGGVVQPGRSLRLSCAASGFTFVSYNMHWVRQAPGKGLEWVAVIMYDGSAKYYADSVKGRFTISRDNSKNTLYLQMNSLRAEDTAVYYCARGRPWYSETGTSAFDIWGQGTMVTVSS VL: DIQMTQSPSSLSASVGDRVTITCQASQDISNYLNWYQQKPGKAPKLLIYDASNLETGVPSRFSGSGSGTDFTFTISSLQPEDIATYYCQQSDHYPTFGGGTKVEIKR"
  Assay Metric: "CHO-OX40 binding intensity (MFI)"
  Val: 252000

Consider now this further binder.
Problem: Look up and report measured CHO-OX40 binding intensity (MFI) for this entry: ADI-25654, IgG1 format (antibody, V domains shown, Made in yeast or CHO cells; also called ADI-25654-g1) VH: QVQLVESGGGVVQPGRSLRLSCAASGFTFRSYDMHWVRQAPGKGLEWVAYIAYDGSNKYYADSVKGRFTISRDNSKNTLYLQMNSLRAEDTAVYYCARGRPWYSETGTSAFDIWGQGTMVTVSS VL: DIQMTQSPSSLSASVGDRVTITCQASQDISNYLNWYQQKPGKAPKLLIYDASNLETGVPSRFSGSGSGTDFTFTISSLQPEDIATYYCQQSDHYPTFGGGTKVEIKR
Result: 252000
